The origin of these recorded values is the RNAGym collection of RNA variant scans (doi:10.7554/elife.80360).

B1: HDV Ribozyme (parent)
chain: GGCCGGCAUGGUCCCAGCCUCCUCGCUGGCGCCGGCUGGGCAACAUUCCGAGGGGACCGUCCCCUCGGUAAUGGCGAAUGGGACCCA

# Variants of: B1
# Procedure text: self-cleavage, relative activity (ratio to wild type); higher = more cleavage; co-transcriptional
Property measured: self-cleavage
Form: value (number only, do not type unit).

Examples from the recorded data:
>  <Polymer sequence>
GGCCGGCAUGGUCCCAGCCUCCUCGCUCGCGCCGGCUGGGCAACAUUCCGAGGGGACCGUCCCCUCGGUAAUGGCGUAUGGGACCCA [G28C A77U]

>  <self-cleavage>
0.107

$$$$
>  <Polymer sequence>
GGCCGGCAUGGUCCCAGCCUCCUCGCUGGGGCCGGCUGGGCAACAUUCCGAGGGGACCGUCCCCUCGAUAAUGGCGAAUGGGACCCA [C30G G68A]

>  <self-cleavage>
0.126

$$$$
>  <Polymer sequence>
GGCCGGCAUGGUCCCAGCCUCCUCGCUGUCGCCAGCUGGGCAACAUUCCGAGGGGACCGUCCCCUCGGUAAUGGCGAAUGGGACCCA [G29U G34A]

>  <self-cleavage>
0.111

$$$$
>  <Polymer sequence>
GGCCGGCAUGGUCCCAGCCUCCUCGCUGGCGCCGGCUGGGCAACAUUCCGAGGGGACCGUCCCCUAGGUAAUGGCUAAUGGGACCCA [C66A G76U]

>  <self-cleavage>
0.981

$$$$
>  <Polymer sequence>
GGCCGGCAUGGUCCCAGCCUCCUCGCUGGCGCCGGCUGGGCAACAUUCCGAGGGGACCGUCCCUUCGGUAAUGGCUAAUGGGACCCA [C64U G76U]

>  <self-cleavage>
1.15

$$$$
>  <Polymer sequence>
GGCCGACAUGGUCCCAGCCUCCUCGCUGGCGCCGGCUGGGCAACAUUCCGAGGGGACCGUCCCCUCGGUAAUGGUGAAUGGGACCCA [G6A C75U]

>  <self-cleavage>
0.193

$$$$
>  <Polymer sequence>
GGCCGGCAUGGUCCCAGCCUCCUCGCUGUCGCCGGCUGGGCAACAUUCCGAGGGGACCGUCCCCUCGCUAAUGGCGAAUGGGACCCA [G29U G68C]

>  <self-cleavage>
0.106

$$$$
>  <Polymer sequence>
GGCCGGUAUGGUCCCAGCCUCCUCGCUGGCGCCGGCUGGGCAACAUUCCGAGGGGACCGUCCCCUCGGUACUGGCGAAUGGGACCCA [C7U A71C]

>  <self-cleavage>
0.322

$$$$
>  <Polymer sequence>
GGCCGGCAUGGUCUCAGCCUCCUCGCUGGCGCCGGCUGGGCAACAUUCCGAGGGGACUGUCCCCUCGGUAAUGGCGAAUGGGACCCA [C14U C58U]

>  <self-cleavage>
0.991

$$$$
>  <Polymer sequence>
GGCCGGCAUGGUCCCAGCCUCCUUGCUGGCGCCGGCUGGGCAAAAUUCCGAGGGGACCGUCCCCUCGGUAAUGGCGAAUGGGACCCA [C24U C44A]

>  <self-cleavage>
0.277

$$$$

For GGCCGGCAUGGUCCCAGCCUCCUCGCUGGCGCCGGCUGGGCAACAUUCCGAGCGGACCGUCCCCUCGGUAACGGCGAAUGGGACCCA [G53C U72C] , what is its reported self-cleavage? 1.02

Okay, and GGCCGGCAUGGUCCCAGCCUCCUCGCUGGCGCCGGCUGGGCAACAUUCCGAGUGGACCGUCCCCUCGGUUAUGGCGAAUGGGACCCA [G53U A70U] ? 0.739

How about this variant: GGCCGGCAUGUUCCGAGCCUCCUCGCUGGCGCCGGCUGGGCAACAUUCCGAGGGGACCGUCCCCUCGGUAAUGGCGAAUGGGACCCA [G11U C15G] 0.166

Also check GGCCGGCAUGGUCCCAGCCUCCUCGCGGGCGCCGUCUGGGCAACAUUCCGAGGGGACCGUCCCCUCGGUAAUGGCGAAUGGGACCCA [U27G G35U] 0.277

Next up: GGCCGGCAUCGUCCCAGCCUCCUCGCUGGCGCCGGCUGGGCAACAUUGCGAGGGGACCGUCCCCUCGGUAAUGGCGAAUGGGACCCA [G10C C48G] 1.17

# iterate: GGCCGGCAUGGUCCCAGCCUCCUCGCUGGCGCCGGCCGGGCAACAUUCCGAGGGGACCGUCCCCUCGGUAAUGGCGAAUGGGACUCA [U37C C85U] 1.01
